Test system: RXRa homodimer (NR concentration 180 nM)
Test: PBM binding z-score (relative to random genomic background probes); higher = stronger binding; sequences stand for … in GC…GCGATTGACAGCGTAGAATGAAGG
Note to self: values exactly at 1 are yes. So PBM binding z-score at or above 1 is yes, below is no.

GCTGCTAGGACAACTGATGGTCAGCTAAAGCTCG no
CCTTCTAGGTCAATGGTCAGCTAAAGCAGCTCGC yes
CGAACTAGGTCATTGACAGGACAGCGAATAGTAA yes
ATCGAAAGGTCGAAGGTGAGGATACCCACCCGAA yes
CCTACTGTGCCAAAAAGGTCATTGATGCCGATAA yes
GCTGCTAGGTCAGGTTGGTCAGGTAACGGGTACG yes
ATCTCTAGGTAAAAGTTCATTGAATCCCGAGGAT yes
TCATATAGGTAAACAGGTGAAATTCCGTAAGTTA yes
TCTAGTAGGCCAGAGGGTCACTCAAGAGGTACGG yes
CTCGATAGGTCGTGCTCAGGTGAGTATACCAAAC yes
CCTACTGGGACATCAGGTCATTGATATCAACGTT yes
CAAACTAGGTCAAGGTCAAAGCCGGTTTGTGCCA yes
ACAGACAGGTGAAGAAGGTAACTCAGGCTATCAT no
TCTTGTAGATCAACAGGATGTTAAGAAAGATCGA no
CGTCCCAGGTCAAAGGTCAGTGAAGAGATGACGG yes

---

Tested on: THRa:RXRa (NR concentration 90 nM, RXRa partner concentration 90 nM)
Test: PBM binding z-score (relative to random genomic background probes); higher = stronger binding; sequences stand for … in GC…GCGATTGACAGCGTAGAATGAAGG
Note to self: values exactly at 1 are satisfied. So PBM binding z-score at or above 1 is satisfied, below is not satisfied.

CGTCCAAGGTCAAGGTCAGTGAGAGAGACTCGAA satisfied
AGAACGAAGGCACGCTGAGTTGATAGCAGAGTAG not satisfied
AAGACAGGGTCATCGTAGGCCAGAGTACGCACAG satisfied
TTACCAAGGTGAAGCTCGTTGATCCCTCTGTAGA satisfied
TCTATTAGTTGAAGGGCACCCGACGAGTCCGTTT not satisfied
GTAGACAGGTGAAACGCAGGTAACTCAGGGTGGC satisfied
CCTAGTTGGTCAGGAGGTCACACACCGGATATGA satisfied
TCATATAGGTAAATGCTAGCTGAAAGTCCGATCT not satisfied
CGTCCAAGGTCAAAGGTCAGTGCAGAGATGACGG satisfied
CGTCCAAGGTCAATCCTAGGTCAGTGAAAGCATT satisfied
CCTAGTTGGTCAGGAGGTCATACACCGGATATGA satisfied
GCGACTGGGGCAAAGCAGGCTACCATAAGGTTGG satisfied
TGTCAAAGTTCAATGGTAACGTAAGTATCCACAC satisfied
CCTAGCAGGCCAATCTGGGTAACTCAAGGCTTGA satisfied
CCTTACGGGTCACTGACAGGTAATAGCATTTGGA satisfied
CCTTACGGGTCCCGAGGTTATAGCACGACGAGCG satisfied
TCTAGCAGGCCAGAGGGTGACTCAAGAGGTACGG not satisfied
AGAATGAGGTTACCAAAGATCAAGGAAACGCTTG satisfied
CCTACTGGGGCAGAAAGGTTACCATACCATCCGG not satisfied
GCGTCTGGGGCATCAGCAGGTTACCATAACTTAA satisfied
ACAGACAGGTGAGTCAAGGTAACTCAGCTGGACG satisfied
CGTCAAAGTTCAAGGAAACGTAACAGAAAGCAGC satisfied
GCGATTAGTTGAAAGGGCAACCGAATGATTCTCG not satisfied
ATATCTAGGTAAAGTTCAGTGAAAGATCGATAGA satisfied
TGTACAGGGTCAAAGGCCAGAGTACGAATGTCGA satisfied
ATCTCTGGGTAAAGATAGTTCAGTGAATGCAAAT not satisfied
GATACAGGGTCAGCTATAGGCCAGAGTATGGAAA satisfied
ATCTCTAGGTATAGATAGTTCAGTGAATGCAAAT not satisfied

---

Tested on: PPARg:RXRa 270nM:90nM, anti-RXR (NR concentration 270 nM, RXRa partner concentration 90 nM)
Assay: PBM binding z-score (relative to random genomic background probes); higher = stronger binding; sequences stand for … in GC…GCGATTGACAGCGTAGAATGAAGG
Note to self: values exactly at 3 are 1 (yes). So PBM binding z-score at or above 3 is 1 (yes), below is 0 (no).

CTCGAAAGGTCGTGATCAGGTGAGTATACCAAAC 1 (yes)
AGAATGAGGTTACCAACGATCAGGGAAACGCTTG 0 (no)
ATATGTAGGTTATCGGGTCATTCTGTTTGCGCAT 1 (yes)
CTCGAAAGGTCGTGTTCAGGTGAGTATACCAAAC 1 (yes)
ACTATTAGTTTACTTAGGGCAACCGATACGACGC 0 (no)
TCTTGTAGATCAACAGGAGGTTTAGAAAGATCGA 0 (no)
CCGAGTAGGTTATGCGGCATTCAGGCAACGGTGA 0 (no)
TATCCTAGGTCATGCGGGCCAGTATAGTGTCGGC 1 (yes)
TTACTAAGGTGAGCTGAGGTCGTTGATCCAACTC 0 (no)
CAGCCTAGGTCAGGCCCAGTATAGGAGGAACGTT 0 (no)
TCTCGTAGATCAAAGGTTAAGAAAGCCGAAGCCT 1 (yes)

---

Tested on: PPARg DBDmut:RXRa IVT, anti-PPARg (DBD mutation: PPARg1 K132A/R137A, NR concentration 270 nM, RXRa partner concentration 90 nM)
Test: PBM binding z-score (relative to random genomic background probes); higher = stronger binding; sequences stand for … in GC…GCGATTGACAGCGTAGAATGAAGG
RECORDED ENDPOINT: PBM binding z-score

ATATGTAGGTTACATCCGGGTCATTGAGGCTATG 2.02
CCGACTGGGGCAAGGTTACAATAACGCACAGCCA -0.578
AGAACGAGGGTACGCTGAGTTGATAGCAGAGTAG 0.215
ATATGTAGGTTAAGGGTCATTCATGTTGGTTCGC 2.47
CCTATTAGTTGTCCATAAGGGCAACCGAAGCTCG 0.706
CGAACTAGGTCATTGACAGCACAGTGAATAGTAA 2.12
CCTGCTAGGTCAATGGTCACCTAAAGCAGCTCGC 0.106
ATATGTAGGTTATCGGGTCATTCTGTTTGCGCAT 3.52
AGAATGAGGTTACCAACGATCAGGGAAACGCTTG 0.997
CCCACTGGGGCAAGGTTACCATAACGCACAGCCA 2.71
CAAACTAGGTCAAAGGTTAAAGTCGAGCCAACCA 6.93
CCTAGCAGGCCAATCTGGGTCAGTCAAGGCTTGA -0.788
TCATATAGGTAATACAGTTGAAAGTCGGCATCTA 1.55
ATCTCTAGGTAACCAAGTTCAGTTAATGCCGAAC 2.02

---

System: RARg homodimer (NR concentration 270 nM)
Test: PBM binding z-score (relative to random genomic background probes); higher = stronger binding; sequences stand for … in GC…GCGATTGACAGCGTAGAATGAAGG
// PBM binding z-score lookup, one value per entry
RECORDED ENDPOINT: PBM binding z-score

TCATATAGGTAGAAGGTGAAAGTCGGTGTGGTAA 0.283
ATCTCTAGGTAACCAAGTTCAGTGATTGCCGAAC 0.823
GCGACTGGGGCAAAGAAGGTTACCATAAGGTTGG 1.02
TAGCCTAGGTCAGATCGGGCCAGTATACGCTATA 3.1

---

System: RXRa DBDmut IVT, anti-RXR (DBD mutation: RXRa K156A/R161A, NR concentration 90 nM)
Experiment: PBM binding z-score (relative to random genomic background probes); higher = stronger binding; sequences stand for … in GC…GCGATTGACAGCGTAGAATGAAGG
RECORDED ENDPOINT: PBM binding z-score

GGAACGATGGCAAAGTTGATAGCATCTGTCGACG -0.199
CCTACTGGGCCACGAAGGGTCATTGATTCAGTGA -0.323
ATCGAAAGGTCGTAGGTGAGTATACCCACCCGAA 1.21
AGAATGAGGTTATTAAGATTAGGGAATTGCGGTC 2
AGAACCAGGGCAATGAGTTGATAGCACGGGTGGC 0.0529
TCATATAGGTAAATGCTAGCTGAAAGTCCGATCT 1.68
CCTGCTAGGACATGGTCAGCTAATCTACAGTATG 0.385
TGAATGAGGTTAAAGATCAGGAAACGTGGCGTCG 1.25

---

Test system: PPARg:RXRa (NR concentration 180 nM, RXRa partner concentration 90 nM)
Assay: PBM binding z-score (relative to random genomic background probes); higher = stronger binding; sequences stand for … in GC…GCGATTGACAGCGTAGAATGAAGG
// PBM binding z-score lookup, one value per entry
RECORDED ENDPOINT: PBM binding z-score

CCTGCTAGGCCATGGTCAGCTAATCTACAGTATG 0.069
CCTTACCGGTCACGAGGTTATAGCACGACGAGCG 2.12
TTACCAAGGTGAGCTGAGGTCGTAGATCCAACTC 0.268
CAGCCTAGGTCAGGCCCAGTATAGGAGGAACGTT 0.633
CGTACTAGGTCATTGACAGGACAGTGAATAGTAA 6.36
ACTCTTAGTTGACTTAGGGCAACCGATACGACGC 0.905
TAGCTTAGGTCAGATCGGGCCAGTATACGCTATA 0.531
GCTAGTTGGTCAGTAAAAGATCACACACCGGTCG 0.637
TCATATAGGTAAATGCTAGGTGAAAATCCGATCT 0.91
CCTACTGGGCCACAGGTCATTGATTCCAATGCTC 8.34
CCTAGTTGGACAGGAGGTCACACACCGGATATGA 2.52
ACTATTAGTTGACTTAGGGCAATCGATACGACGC 0.814
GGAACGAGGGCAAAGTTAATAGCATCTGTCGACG 5.8
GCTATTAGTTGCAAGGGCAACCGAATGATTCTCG 0.483
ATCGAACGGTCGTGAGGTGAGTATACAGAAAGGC 0.66
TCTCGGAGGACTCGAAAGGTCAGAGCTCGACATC 0.567
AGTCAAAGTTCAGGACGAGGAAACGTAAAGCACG 5.02
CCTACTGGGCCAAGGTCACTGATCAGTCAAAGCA 4.17
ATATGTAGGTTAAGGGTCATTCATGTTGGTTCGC 11.6
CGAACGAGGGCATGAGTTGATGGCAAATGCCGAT 1.24
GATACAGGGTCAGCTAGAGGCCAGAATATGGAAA 3.78
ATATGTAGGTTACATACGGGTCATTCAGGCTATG 6.06
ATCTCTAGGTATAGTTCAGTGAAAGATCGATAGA 0.816
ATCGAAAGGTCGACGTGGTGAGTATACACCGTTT 2.08
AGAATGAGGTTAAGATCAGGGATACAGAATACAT 2.77
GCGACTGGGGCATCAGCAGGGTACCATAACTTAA 0.759
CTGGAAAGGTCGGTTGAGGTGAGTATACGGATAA 0.576
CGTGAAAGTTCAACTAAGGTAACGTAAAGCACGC 3.58
TCATATAGGTTATACAGGTGAAAGTCGGCATCTA 2.56
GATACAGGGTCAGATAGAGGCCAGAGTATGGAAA 3.32
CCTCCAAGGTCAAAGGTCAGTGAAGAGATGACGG 10.5
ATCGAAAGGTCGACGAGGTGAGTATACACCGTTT 2.85
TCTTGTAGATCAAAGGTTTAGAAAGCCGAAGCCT 3.22
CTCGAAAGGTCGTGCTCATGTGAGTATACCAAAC 2.86
